B1: Osa-1-4 twister ribozyme (parent)
chain: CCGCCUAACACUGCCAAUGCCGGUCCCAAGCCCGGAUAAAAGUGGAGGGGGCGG

variants of: B1; assay: self-cleavage, relative activity (ratio to wild type); higher = more cleavage; co-transcriptional
Observable: self-cleavage

Please give measured self-cleavage of the following entry: G34C G45A
0.05

Name the recorded self-cleavage of the variant listed here: C14A C15U
0.05

Supply measured self-cleavage of A8U C14A in your reply.
0.04
